Heads up, these compounds all have Ki values measured for UniProt:P47898.
Where a name gives a salt, the structure may show the parent alone.

Would you please look over these solved cases?
INSERT INTO assay_data (compound, result) VALUES
  ('COc1cccc(OC)c1CNC(=N)Nc1ncc(-c2ccccc2)s1 [Example 66, hydrobromide]', '< 50 nM'),
  ('COc1ccccc1CNC(=N)Nc1nc(C(C)(C)C)cs1 [Example 37]', '50 to 500 nM');

QUERY: I am curious: what Ki value has been reported for COc1ccccc1CNC(=N)Nc1nnc(C)[nH]1 [Example 185, acetate] ?
RESULT: > 500 nM

QUERY: I am curious: what Ki value has been reported for COc1cccc(OC)c1CNC(=N)Nc1nc(-c2ccccc2)c[nH]1 [Example 187, acetate] ?
RESULT: < 50 nM

* * *

target: h5-HT5A receptor (Homo sapiens); construct: expressed in transfected cells; host or cells: HEK293; experiment: [3H]5-CT binding assay h5-HT5A; settings: membranes from HEK293 cells expressing h5-HT5A, 2.5 nM [3H]5-CT; read-out: Binding affinity 5-HT5A (Ki)
Sequence (P47898 whole entry): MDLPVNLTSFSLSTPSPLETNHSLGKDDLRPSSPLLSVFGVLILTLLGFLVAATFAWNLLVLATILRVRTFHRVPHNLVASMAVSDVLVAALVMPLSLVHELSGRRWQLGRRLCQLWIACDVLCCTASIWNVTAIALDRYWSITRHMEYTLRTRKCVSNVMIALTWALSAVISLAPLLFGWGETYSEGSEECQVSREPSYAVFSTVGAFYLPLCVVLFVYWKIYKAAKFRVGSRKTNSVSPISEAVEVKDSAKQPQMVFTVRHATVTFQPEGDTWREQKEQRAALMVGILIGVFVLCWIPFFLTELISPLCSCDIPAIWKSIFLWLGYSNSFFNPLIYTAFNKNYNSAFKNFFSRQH
pKi: −log10 of the molar value. Counter-ions that a name gives are not always drawn.
Assay Metric: pKi

Would you please look over these solved cases?
INSERT INTO results (compound, assay_metric, result) VALUES
  ('COc1cccc(OC)c1CNC(=N)Nc1nc(-c2ccc3c(c2)OCO3)cs1 [Example 69, hydrobromide]', 'pKi', '> 7.30'),
  ('COc1ccccc1CNC(=N)Nc1cc(-c2ccccc2)[nH]n1', 'pKi', '> 7.30');

QUERY: Param readout = pKi; param system = h5-HT5A receptor (Homo sapiens); param query = COc1cccc(Cl)c1CNC(=N)Nc1nc(-c2ccc(F)cc2)c[nH]1 ; response: value
RESULT: > 7.30

QUERY: Param readout = pKi; param system = h5-HT5A receptor (Homo sapiens); param query = COc1cccc(OC)c1CNC(=N)Nc1ncc[nH]1 [Example 177, acetate] ; response: value
RESULT: > 7.30

QUERY: Param readout = pKi; param system = h5-HT5A receptor (Homo sapiens); param query = COc1cccc(OC)c1CNC(=N)Nc1nc(C2CCCN2C(C)C)cs1 (stereo not shown) ; response: value
RESULT: 6.30 to 7.30

QUERY: Param readout = pKi; param system = h5-HT5A receptor (Homo sapiens); param query = COc1cccc(OC)c1CNC(=N)Nc1nc(C)c(C)o1 [Example 174, acetate] ; response: value
RESULT: > 7.30

QUERY: Param readout = pKi; param system = h5-HT5A receptor (Homo sapiens); param query = COc1cccc(OC)c1CNC(=N)Nc1nc(-c2cc(Cl)ccc2Cl)cs1 [Example 21, hydrobromide] ; response: value
RESULT: > 7.30

QUERY: Param readout = pKi; param system = h5-HT5A receptor (Homo sapiens); param query = COc1ccccc1CNC(=N)Nc1ncc[nH]1 [Example 183, acetate] ; response: value
RESULT: 6.30 to 7.30

QUERY: Param readout = pKi; param system = h5-HT5A receptor (Homo sapiens); param query = COc1ccccc1CNC(=N)Nc1nccs1 ; response: value
RESULT: > 7.30

QUERY: Param readout = pKi; param system = h5-HT5A receptor (Homo sapiens); param query = COc1cccc(OC)c1CNC(=N)Nc1ncc(-c2ccc(F)cc2)s1 ; response: value
RESULT: > 7.30

QUERY: Param readout = pKi; param system = h5-HT5A receptor (Homo sapiens); param query = COc1cccc(OC)c1CNC(=N)Nc1n[nH]c2ccccc12 [Example 180, acetate] ; response: value
RESULT: > 7.30

QUERY: Param readout = pKi; param system = h5-HT5A receptor (Homo sapiens); param query = COc1cccc(CNC(=N)Nc2nccs2)c1 [Example 14, hydrochloride] ; response: value
RESULT: 6.30 to 7.30

QUERY: Param readout = pKi; param system = h5-HT5A receptor (Homo sapiens); param query = COc1ccccc1CCNC(=N)Nc1nccs1 [Example 16, hydrochloride] ; response: value
RESULT: < 6.30

QUERY: Param readout = pKi; param system = h5-HT5A receptor (Homo sapiens); param query = COc1cccc(OC)c1CNC(=N)Nc1cc(-c2ccccc2)[nH]n1 ; response: value
RESULT: > 7.30

QUERY: Param readout = pKi; param system = h5-HT5A receptor (Homo sapiens); param query = COc1cccc(Cl)c1CNC(=N)Nc1cc(C(C)(C)C)[nH]n1 ; response: value
RESULT: > 7.30

QUERY: Param readout = pKi; param system = h5-HT5A receptor (Homo sapiens); param query = N=C(NCCOc1ccccc1Cl)Nc1nccs1 ; response: value
RESULT: 6.30 to 7.30

QUERY: Param readout = pKi; param system = h5-HT5A receptor (Homo sapiens); param query = COc1cccc(OC)c1CNC(=N)Nc1nc(-c2ccc(F)cc2)c[nH]1 [Example 191, acetate] ; response: value
RESULT: > 7.30

QUERY: Param readout = pKi; param system = h5-HT5A receptor (Homo sapiens); param query = COc1cccc(OC)c1CNC(=N)Nc1nc(-c2ccc(N(C)C)cc2)cs1 [Example 110, hydrobromide] ; response: value
RESULT: > 7.30

QUERY: Param readout = pKi; param system = h5-HT5A receptor (Homo sapiens); param query = COc1cccc(OC)c1CNC(=N)Nc1nc(C23CC4CC(CC(C4)C2)C3)cs1 [Example 85, hydrobromide] ; response: value
RESULT: > 7.30

QUERY: Param readout = pKi; param system = h5-HT5A receptor (Homo sapiens); param query = COc1cccc(OC)c1CNC(=N)Nc1nc(-c2ccco2)cs1 [Example 117, hydrobromide] ; response: value
RESULT: > 7.30

QUERY: Param readout = pKi; param system = h5-HT5A receptor (Homo sapiens); param query = COc1ccccc1CNC(=N)Nc1nc(C)c(C)s1 ; response: value
RESULT: > 7.30

QUERY: Param readout = pKi; param system = h5-HT5A receptor (Homo sapiens); param query = COc1cc(F)ccc1-c1csc(NC(=N)NCc2c(OC)cccc2OC)n1 ; response: value
RESULT: > 7.30

* * *

molecular target: UniProt P47898
pKi: −log10 of the molar value. Structures can show the parent of a compound that is named as a salt.
Listing: pKi of selected molecules

INSERT INTO measurements (molecule, result) VALUES
  ('COc1ccccc1CNC(=N)Nc1nc2ccc(C)cc2s1 [Example 168, fumarate]', '6.30 to 7.30'),
  ('COc1ccccc1CNC(=N)Nc1ccn(C)n1 [Example 214]', '> 7.30'),
  ('COc1cccc(OC)c1CNC(=N)Nc1nccs1 [Example 5]', '> 7.30'),
  ('COc1cccc(OC)c1CNC(=N)Nc1nc(-c2ccc(OC(F)(F)F)cc2)cs1 [Example 64, hydrobromide]', '> 7.30'),
  ('COc1cccc(OC)c1CNC(=N)Nc1nc(CN)cs1 [Example 154, hydrochloride]', '> 7.30'),
  ('COc1cccc(C)c1CNC(=N)Nc1nc(-c2ccc(F)cc2)cs1 [Example 138]', '> 7.30'),
  ('COc1cccc(OC)c1CNC(=N)Nc1nc(-c2ccccc2Cl)cs1 [Example 44]', '> 7.30'),
  ('COc1ccccc1-c1csc(NC(=N)NCc2c(OC)cccc2OC)n1 [Example 75, hydrobromide]', '> 7.30'),
  ('COc1cccc(OC)c1CNC(=N)Nc1nc(-c2cc(C(F)(F)F)cc(C(F)(F)F)c2)cs1 [Example 19, hydrobromide]', '6.30 to 7.30'),
  ('Cc1ccc(C)c(CNC(=N)Nc2nccs2)c1 [Example 4, hydrochloride]', '6.30 to 7.30');

QUERY: I am curious: what pKi value has been reported for COc1cccc(OC)c1CNC(=N)Nc1cc(-c2ccc(C)cc2)[nH]n1 [Example 207] ?
RESULT: > 7.30

QUERY: I am curious: what pKi value has been reported for COc1ccccc1CN=C(N)Nc1nc(-c2ccccc2)ns1 [Example 106] ?
RESULT: < 6.30

QUERY: I am curious: what pKi value has been reported for COc1cccc(OC)c1CNC(=N)Nc1nc(-c2cccs2)cs1 [Example 90, hydrobromide] ?
RESULT: > 7.30

QUERY: I am curious: what pKi value has been reported for COc1cccc(OC)c1CNC(=N)Nc1nc(-c2ccc(-c3ccccc3)cc2)cs1 [Example 74, hydrobromide] ?
RESULT: > 7.30

QUERY: I am curious: what pKi value has been reported for COc1cccc(OC)c1CNC(=N)Nc1nc2cc(C)c(C)cc2s1 [Example 172, fumarate] ?
RESULT: > 7.30

QUERY: I am curious: what pKi value has been reported for COc1cccc(OC)c1CNC(=N)Nc1nc(-c2cccc(F)c2)cs1 [Example 73, hydrobromide] ?
RESULT: > 7.30
